# Method summary: Growth inhibition of human MCF10A cells after 72 hrs by celltiter-blue viability assay
# Type: cell-based, MCF-10A
Metric name: GI50 at 72 h

-- ask Look up GI50 at 72 h of COc1cc([C@@H]2c3cc4c(cc3[C@@H](O[C@@H]3O[C@@H]5CO[C@@H](C)O[C@H]5[C@H](O)[C@H]3O)[C@H]3COC(=O)[C@H]23)OCO4)cc(OC)c1O [ETOPOSIDE] and report it.
-- reply > 5 µM

-- ask Complete the entry with GI50 at 72 h for `CC(C)(O)CCc1ccc(O)c2c(=O)c3c(O)c4c(cc3oc12)O[C@H]1OC=C[C@@]41O`
-- reply 3.51 µM

-- ask Give the reported value of GI50 at 72 h for this record: `COc1cccc2c1C(=O)c1c(O)c3c(c(O)c1C2=O)C[C@@](O)(C(=O)CO)C[C@@H]3O[C@H]1C[C@H](N)[C@H](O)[C@H](C)O1`
-- reply > 5 µM

-- ask Please look at this molecule and report its GI50 at 72 h: `COc1cc2c(c3oc(=O)c4c(c13)CCC4=O)[C@@H]1C=CO[C@@H]1O2`
-- reply > 5 µM
